Target: recombinant human OX40 (Acro Biosystems, cat. no. OXO-H5224) (human) (UniProt P43489)
Sequence (P43489 29-216 limits assumed): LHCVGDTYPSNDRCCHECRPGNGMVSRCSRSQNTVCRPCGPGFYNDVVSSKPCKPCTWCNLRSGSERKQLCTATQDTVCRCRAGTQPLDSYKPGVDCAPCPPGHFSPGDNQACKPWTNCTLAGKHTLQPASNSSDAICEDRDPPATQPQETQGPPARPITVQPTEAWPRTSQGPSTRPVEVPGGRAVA
Assay: BLI, Ab on AHC sensor, OX40 analyte
observable: koff (s⁻¹)
Please respond with the number in s⁻¹ and leave the unit unwritten.

Task: # get_value(readout='koff', item= IgG1-CD134-GBR830 (antibody, INN chains, looked up, V domains shown, IgG1) VH: QVTLKESGPALVKPTQTLTLTCSFSGFSLSTSGMGVGWIRQPPGKALEWIAHIWWDDDKYYNTALKTRLTISKDTSKNQVVLTMTNMDPVDTATYYCARIDWDGFAYWGQGTLVTVSS VL: EIVLTQSPATLSLSPGERATLSCRASSSVSYMHWYQQKPGQAPRPWIYATSNRATGIPARFSGSGSGTDYTLTISSLEPEDFAVYYCQQWSSNPWTFGQGTKVEIK )
Output: 0.0077
